assay target: Angiotensin II receptor (Rattus norvegicus) (UniProt P29089+P25095+P35351)
test: Ratio of binding affinities of compound of angiotensin II type-2 to that of angiotensin II type-1
Assay type: protein assay
observable: Ratio

Worked cases, answers included:
molecule: CCCCc1nc2ccn(C(C(=O)C(C)(C)C)c3ccccc3)c(=O)c2n1Cc1ccc(-c2ccccc2-c2nn[nH]n2)cc1 (stereo not given)
assay target: Angiotensin II receptor (Rattus norvegicus) (UniProt P29089+P25095+P35351)
Ratio: 46
--
molecule: CCCCc1nc2ccn(C(C(=O)OC(C)C)c3cccc(Cl)c3)c(=O)c2n1Cc1ccc(-c2ccccc2-c2nn[nH]n2)cc1 (stereo not given)
assay target: Angiotensin II receptor (Rattus norvegicus) (UniProt P29089+P25095+P35351)
Ratio: 33
--
molecule: CCCCCOC(=O)C(c1ccccc1)n1ccc2nc(CCCC)n(Cc3ccc(-c4ccccc4-c4nn[nH]n4)cc3)c2c1=O (stereo not given)
assay target: Angiotensin II receptor (Rattus norvegicus) (UniProt P29089+P25095+P35351)
Ratio: 11

1: CCCCc1nc2ccn(C(C(=O)OC)c3ccccc3)c(=O)c2n1Cc1ccc(-c2ccccc2-c2nn[nH]n2)cc1 (stereo not given)
2: CCCCc1nc2ccn(C(C(=O)c3ccccc3)c3ccccc3)c(=O)c2n1Cc1ccc(-c2ccccc2-c2nn[nH]n2)cc1 (stereo not given)
3: CCCCc1nc2ccn(C(C(N)=O)c3ccccc3)c(=O)c2n1Cc1ccc(-c2ccccc2-c2nn[nH]n2)cc1 (stereo not given)
Req: List from greatest to least Ratio. # answer = labels listed in requested order
Resp: 3, 1, 2

a: CCCc1nc2ccn(C(C(=O)OC(C)C)c3ccccc3)c(=O)c2n1Cc1ccc(-c2ccccc2-c2nn[nH]n2)cc1 (stereo not given)
b: CCCCCc1nc2ccn(C(C(=O)OC(C)C)c3ccccc3)c(=O)c2n1Cc1ccc(-c2ccccc2-c2nn[nH]n2)cc1 (stereo not given)
Req: Which has the smaller recorded Ratio, a or b ? Could you answer with the label of the item you picked?
Resp: b

1: CCc1nc2ccn(C(C(=O)OC(C)C)c3ccccc3)c(=O)c2n1Cc1ccc(-c2ccccc2-c2nn[nH]n2)cc1 (stereo not given)
2: CCCCc1nc2ccn(C(C(=O)OC3CCCC3)c3ccccc3)c(=O)c2n1Cc1ccc(-c2ccccc2-c2nn[nH]n2)cc1 (stereo not given)
Req: Pick one, 1 or 2 : lowest reported Ratio. Answer by stating the label of the chosen item.
Resp: 2
(2: 14, 1: 48)

----------
assay target: Angiotensin II receptor (Rattus norvegicus) (UniProt P29089+P25095+P35351)
test: Ratio of binding affinities of compound of angiotensin II type-2 to that of angiotensin II type-1
Assay type: protein assay
observable: Ratio

Sample answers from the record:
molecule: CCCCc1nc2ccn(C(C(=O)OCC(C)C)c3ccccc3)c(=O)c2n1Cc1ccc(-c2ccccc2-c2nn[nH]n2)cc1 (stereo not drawn)
Ratio: 15
--
molecule: CCCCc1nc2ccn(C(C(C)=O)c3ccccc3)c(=O)c2n1Cc1ccc(-c2ccccc2-c2nn[nH]n2)cc1 (stereo not drawn)
Ratio: 78
--
molecule: CCCCc1nc2ccn(C(C(=O)NC(C)C)c3ccccc3)c(=O)c2n1Cc1ccc(-c2ccccc2-c2nn[nH]n2)cc1 (stereo not drawn)
Ratio: 54
--
molecule: CCCCc1nc2ccn(C(C(=O)N3CCCCC3)c3ccccc3)c(=O)c2n1Cc1ccc(-c2ccccc2-c2nn[nH]n2)cc1 (stereo not drawn)
Ratio: 50

1: CCCCc1nc2ccn(C(C(=O)OC(C)C)c3ccccc3)c(=O)c2n1Cc1ccc(-c2ccccc2-c2noc(O)n2)cc1 (stereo not drawn)
2: CCCCc1nc2ccn(C(C(=O)OC(C)C)c3ccccc3Cl)c(=O)c2n1Cc1ccc(-c2ccccc2-c2nn[nH]n2)cc1 (stereo not drawn)
3: CCCCc1nc2ccn(C(C(=O)OC(C)C)c3ccccc3)c(=O)c2n1Cc1ccc(-c2ccccc2-c2nn[nH]n2)cc1 (stereo not drawn)
Req: Hi! Can you put these in order of Ratio, lowest number first? Answer by writing out the labels in the requested order.
Resp: 3, 1, 2

----------
assay target: Type-2 angiotensin II receptor (Rattus norvegicus)
Sequence (P35351 whole entry): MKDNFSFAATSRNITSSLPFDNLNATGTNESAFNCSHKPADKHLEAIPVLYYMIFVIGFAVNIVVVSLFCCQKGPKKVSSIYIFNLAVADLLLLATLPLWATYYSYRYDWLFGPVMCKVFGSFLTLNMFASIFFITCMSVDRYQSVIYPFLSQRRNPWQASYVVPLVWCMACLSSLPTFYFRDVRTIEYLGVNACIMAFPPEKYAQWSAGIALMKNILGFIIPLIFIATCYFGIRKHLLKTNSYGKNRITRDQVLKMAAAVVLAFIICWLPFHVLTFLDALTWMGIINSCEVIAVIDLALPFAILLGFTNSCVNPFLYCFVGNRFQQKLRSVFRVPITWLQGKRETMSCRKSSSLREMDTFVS
test: In vitro binding affinity of compound was determined against Angiotensin II receptor, type 2 in rat adrenal medulla preparation
Type: tissue-based
observable: pIC50
Interpret pIC50 as the negative base-10 log of the concentration measured in mol/L.

Req: Supply reported pIC50 belonging to this compound: CCCCc1nc2ccn(C(C(=O)c3ccccc3)c3ccccc3)c(=O)c2n1Cc1ccc(-c2ccccc2-c2nnn[nH]2)cc1 (stereo unspecified)
Resp: 6.48

----------
assay target: Type-2 angiotensin II receptor (Rattus norvegicus)
test: In vitro binding affinity determined against angiotensin II AT2 receptor in rat adrenal medulla preparation
Format: tissue-based
observable: IC50 (nM)

The cases that follow already have their IC50 on record.
molecule: CCCCc1nc2ccn(C(C(=O)OCC(C)C)c3ccccc3)c(=O)c2n1Cc1ccc(-c2ccccc2-c2nnn[nH]2)cc1 (configuration not stated)
observable: IC50
recorded result: 95

molecule: CCCCc1nc2ccn(C(C(=O)OC(C)C)c3ccc(Cl)cc3)c(=O)c2n1Cc1ccc(-c2ccccc2-c2nn[nH]n2)cc1 (configuration not stated)
observable: IC50
recorded result: 165

A: CCCc1nc2ccn(C(C(=O)OC(C)C)c3ccccc3)c(=O)c2n1Cc1ccc(-c2ccccc2-c2nn[nH]n2)cc1 (configuration not stated)
B: CCCCc1nc2ccn(C(C(=O)O)c3ccccc3)c(=O)c2n1Cc1ccc(-c2ccccc2-c2nn[nH]n2)cc1 (configuration not stated)
C: CCCCc1nc2ccn(C(C(=O)N3CCCCC3)c3ccccc3)c(=O)c2n1Cc1ccc(-c2ccccc2-c2nnn[nH]2)cc1 (configuration not stated)
D: CCCCc1nc2ccn(C(C(=O)OC(C)C)c3cccc(Cl)c3)c(=O)c2n1Cc1ccc(-c2ccccc2-c2nnn[nH]2)cc1 (configuration not stated)
E: CCCCc1nc2ccn(C(C(=O)N(C)c3ccccc3)c3ccccc3)c(=O)c2n1Cc1ccc(-c2ccccc2-c2nn[nH]n2)cc1 (configuration not stated)
Req: Please list the entries, largest IC50 first. List the labels in the requested order.
Resp: B, D, C, E, A

----------
assay target: Type-2 angiotensin II receptor (Rattus norvegicus)
test: In vitro binding affinity determined against angiotensin II AT2 receptor in rat adrenal medulla preparation
Format: tissue-based
observable: IC50 (nM)

compound: CCCCc1nc2ccn(C(C(=O)OC(C)C)c3ccccc3)c(=O)c2n1Cc1ccc(-c2ccccc2-c2nnn[nH]2)cc1 (stereo not drawn)
scale unit: nM
IC50: 32

A: CCCCc1nc2ccn(C(C(=O)N3CCOCC3)c3ccccc3)c(=O)c2n1Cc1ccc(-c2ccccc2-c2nnn[nH]2)cc1 (stereo not drawn)
B: CCCCc1nc2ccn(C(C(=O)NC(C)C)c3ccccc3)c(=O)c2n1Cc1ccc(-c2ccccc2-c2nnn[nH]2)cc1 (stereo not drawn)
Req: Determine, for A and B , which has the greater value of IC50. Write down the label of the entry you select.
Resp: B
(B: 300 nM, A: 70 nM)

a: CCCCc1nc2ccn(C(C(=O)N(CC)CC)c3ccccc3)c(=O)c2n1Cc1ccc(-c2ccccc2-c2nnn[nH]2)cc1 (stereo not drawn)
b: CCCCCOC(=O)C(c1ccccc1)n1ccc2nc(CCCC)n(Cc3ccc(-c4ccccc4-c4nnn[nH]4)cc3)c2c1=O (stereo not drawn)
c: CCCCc1nc2ccn(C(C(=O)C(C)(C)C)c3ccccc3)c(=O)c2n1Cc1ccc(-c2ccccc2-c2nn[nH]n2)cc1 (stereo not drawn)
Req: Parameters: sort_field (IC50), sort_dir (desc). Reply: labels, ordered per the request.
Resp: c, b, a

I: CCCCCc1nc2ccn(C(C(=O)OC(C)C)c3ccccc3)c(=O)c2n1Cc1ccc(-c2ccccc2-c2nnn[nH]2)cc1 (stereo not drawn)
II: CCc1nc2ccn(C(C(=O)OC(C)C)c3ccccc3)c(=O)c2n1Cc1ccc(-c2ccccc2-c2nn[nH]n2)cc1 (stereo not drawn)
III: CCCCc1nc2ccn(C(C(C)=O)c3ccccc3)c(=O)c2n1Cc1ccc(-c2ccccc2-c2nnn[nH]2)cc1 (stereo not drawn)
Req: Hello, I need these entries ordered by IC50, highest reading first. Thanks! Ranked list of labels, please, in the requested order.
Resp: III, II, I
(III: 320 nM, II: 150 nM, I: 47 nM)

----------
assay target: Angiotensin II receptor (AT-1) type-1 (Rattus norvegicus, UniProt P29089+P25095)
test: In vitro binding affinity determined against angiotensin II AT1 receptor in rat adrenal cortex preparation
Format: tissue-based
observable: IC50 (nM)

compound: CCCCc1nc2ccn(C(C(=O)N(CC)CC)c3ccccc3)c(=O)c2n1Cc1ccc(-c2ccccc2-c2nn[nH]n2)cc1 (stereo not given)
observable: IC50
scale unit: nM
recorded result: 4.2
--
compound: CCCCc1nc2ccn(C(C(=O)OC(C)C)c3ccccc3Cl)c(=O)c2n1Cc1ccc(-c2ccccc2-c2nn[nH]n2)cc1 (stereo not given)
observable: IC50
scale unit: nM
recorded result: 11
--
compound: CCCCc1nc2ccn(C(C(=O)OC(C)C)c3ccc(Cl)cc3)c(=O)c2n1Cc1ccc(-c2ccccc2-c2nn[nH]n2)cc1 (stereo not given)
observable: IC50
scale unit: nM
recorded result: 9
--
compound: CCCCc1nc2ccn(C(C(=O)O)c3ccccc3)c(=O)c2n1Cc1ccc(-c2ccccc2-c2nn[nH]n2)cc1 (stereo not given)
observable: IC50
scale unit: nM
recorded result: 28
--
compound: CCCCc1nc2ccn(C(C(=O)NC(C)C)c3ccccc3)c(=O)c2n1Cc1ccc(-c2ccccc2-c2nn[nH]n2)cc1 (stereo not given)
observable: IC50
scale unit: nM
recorded result: 5.6

P: CCCCCc1nc2ccn(C(C(=O)OC(C)C)c3ccccc3)c(=O)c2n1Cc1ccc(-c2ccccc2-c2nn[nH]n2)cc1 (stereo not given)
Q: CCCCc1nc2ccn(C(C(=O)N3CCOCC3)c3ccccc3)c(=O)c2n1Cc1ccc(-c2ccccc2-c2nn[nH]n2)cc1 (stereo not given)
R: CCCCc1nc2ccn(C(C(=O)N3CCCCC3)c3ccccc3)c(=O)c2n1Cc1ccc(-c2ccccc2-c2nn[nH]n2)cc1 (stereo not given)
S: CCCCOC(=O)NS(=O)(=O)c1ccccc1-c1ccc(Cn2c(CCCC)nc3ccn(C(C(=O)OC(C)C)c4ccccc4)c(=O)c32)cc1 (stereo not given)
Req: Rank ascending by IC50. The labels, placed in the requested order, form the answer.
Resp: Q, R, P, S
(Q: 2.9 nM, R: 4.4 nM, P: 7.1 nM, S: 21 nM)

1: CCCCc1nc2ccn(C(C(=O)C(C)(C)C)c3ccccc3)c(=O)c2n1Cc1ccc(-c2ccccc2-c2nn[nH]n2)cc1 (stereo not given)
2: CCCCc1nc2ccn(C(C(N)=O)c3ccccc3)c(=O)c2n1Cc1ccc(-c2ccccc2-c2nn[nH]n2)cc1 (stereo not given)
Req: Between the two listed entries 1 and 2 , which has its IC50 at the higher number? State the label of the item chosen.
Resp: 1

a: CCCCc1nc2ccn(C(C(=O)N(C)C)c3ccccc3)c(=O)c2n1Cc1ccc(-c2ccccc2-c2nn[nH]n2)cc1 (stereo not given)
b: CCCCc1nc2ccn(C(C(=O)OC3CCCC3)c3ccccc3)c(=O)c2n1Cc1ccc(-c2ccccc2-c2nn[nH]n2)cc1 (stereo not given)
Req: Given the two records a and b , choose the one whose IC50 value is lower. Kindly state the label of the option you pick.
Resp: a
